# target.under.test: full length GAK protein N-terminally fused with NanoLuc luciferase (Homo sapiens)
# Sequence (O14976 2-1311): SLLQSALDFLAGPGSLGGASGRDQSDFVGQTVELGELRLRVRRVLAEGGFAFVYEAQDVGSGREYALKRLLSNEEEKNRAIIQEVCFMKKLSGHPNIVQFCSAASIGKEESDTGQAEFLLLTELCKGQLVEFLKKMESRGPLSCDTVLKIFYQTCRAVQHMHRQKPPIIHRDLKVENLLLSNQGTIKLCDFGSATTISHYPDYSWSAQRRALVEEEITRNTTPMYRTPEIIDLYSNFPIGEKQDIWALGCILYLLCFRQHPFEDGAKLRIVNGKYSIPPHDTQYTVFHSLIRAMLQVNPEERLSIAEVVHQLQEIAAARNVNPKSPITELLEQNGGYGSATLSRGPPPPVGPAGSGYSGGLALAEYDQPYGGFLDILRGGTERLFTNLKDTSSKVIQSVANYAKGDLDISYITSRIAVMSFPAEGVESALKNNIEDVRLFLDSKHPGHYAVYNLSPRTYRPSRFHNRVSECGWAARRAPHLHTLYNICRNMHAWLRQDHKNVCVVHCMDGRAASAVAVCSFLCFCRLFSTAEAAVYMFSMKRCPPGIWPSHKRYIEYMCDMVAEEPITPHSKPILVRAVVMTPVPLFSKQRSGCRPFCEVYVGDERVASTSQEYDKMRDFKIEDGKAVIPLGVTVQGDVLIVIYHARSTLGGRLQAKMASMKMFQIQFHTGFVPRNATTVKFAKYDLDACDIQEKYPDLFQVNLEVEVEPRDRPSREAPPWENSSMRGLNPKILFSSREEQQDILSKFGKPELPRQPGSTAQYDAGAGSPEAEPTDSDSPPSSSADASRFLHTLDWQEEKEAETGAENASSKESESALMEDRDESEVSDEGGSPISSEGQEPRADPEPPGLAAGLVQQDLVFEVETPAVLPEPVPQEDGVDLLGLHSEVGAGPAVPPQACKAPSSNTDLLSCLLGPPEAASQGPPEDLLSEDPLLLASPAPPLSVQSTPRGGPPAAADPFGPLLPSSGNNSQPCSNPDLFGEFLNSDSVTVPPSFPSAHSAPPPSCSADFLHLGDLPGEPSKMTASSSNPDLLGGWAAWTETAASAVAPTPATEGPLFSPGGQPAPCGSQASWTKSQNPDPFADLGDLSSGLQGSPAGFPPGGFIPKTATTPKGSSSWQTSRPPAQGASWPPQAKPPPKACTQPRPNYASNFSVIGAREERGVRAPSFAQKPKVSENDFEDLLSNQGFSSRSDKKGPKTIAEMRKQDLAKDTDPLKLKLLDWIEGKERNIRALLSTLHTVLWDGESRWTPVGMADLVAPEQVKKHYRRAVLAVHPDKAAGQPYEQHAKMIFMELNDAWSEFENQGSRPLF
# assay.explanation: cell-based
# Set-up: species or system HEK293T
Consider the following molecules and their measured pIC50 readings.
Expect pIC50 as a plain number equal to -log10 of the molar concentration.

{"smiles.record": "COc1ccc2ncc(C#N)c(Nc3cc(OC)c(OC)c(OC)c3)c2c1", "quantitative.result": 7.04}
{"smiles.record": "COc1cc(Nc2c(C#N)cnc3ccc(Br)cc23)cc(OC)c1OC", "quantitative.result": 6.70}

So what's the measured pIC50 for this one? COc1ccc2c(Nc3cc(OC)c(OC)c(OC)c3)c(C#N)cnc2c1
7.11

So what's the measured pIC50 for this one? COc1cc(Nc2c(C#N)cnc3cc(Br)ccc23)cc(OC)c1OC
6.85

So what's the measured pIC50 for this one? COc1cc(Nc2c(C#N)cnc3ccc(Cl)cc23)cc(OC)c1OC
6.62

So what's the measured pIC50 for this one? COc1cc(Nc2c(C#N)cnc3cc(Cl)ccc23)cc(OC)c1OC
6.33

So what's the measured pIC50 for this one? COc1cc(Nc2c(C#N)cnc3ccccc23)cc(OC)c1OC
6.48

So what's the measured pIC50 for this one? COc1cc(Nc2c(C#N)cnc3ccc(I)cc23)cc(OC)c1OC
6.59

So what's the measured pIC50 for this one? COc1cc(Nc2c(C#N)cnc3cc(I)ccc23)cc(OC)c1OC
6.70
